Tested on: NCI-H23 lung
Assay: NCI tumour cell line growth inhibition, 48 h; in the data active = GI50 below about 0.43 µM; inactive = the rest
One label from this list, please: Yes for active, No for inactive

For this compound, state the assay outcome: `N#Cc1ccccc1C#C/C=C\C#CC#C/C=C\C#Cc1ccccc1C#N`
No

# fetch the recorded call for `O=C1c2cccnc2C(=O)c2c1c(C(=O)NCCn1ccnc1)c1ccccn21` here
No

In this assay, the call recorded for CCN(CC)CCN1C(=O)C2C3C(=O)CC(C)(CC3C)C2C1=O (centres undefined) was what?
No

# fetch the recorded call for CC[C@]1(O)CC2CN(CCc3c([nH]c4ccccc34)[C@@](C(=O)OC)(c3cc4c(cc3OC)N(C=O)[C@H]3[C@@](O)(C(=O)OC)[C@H](OC(C)=O)[C@]5(CC)C=CCN6CC[C@]43[C@@H]65)C2)C1 (some centres undefined) here
Yes

Hi, sorry to bother you, what did the test record for `COc1cc(/C=C/C(=O)N2CCC=CC2=O)cc(OC)c1OC` ?
No

Look up the recorded call for `Cc1ccc(-c2nc(N3CCNCC3)c3oc(-c4ccccc4)nc3n2)cc1` in this test.
No

What was the test verdict on `O=C(Nc1ccccc1C(F)(F)F)c1ccc(NC2=C(Cl)C(=O)N(Cc3ccccc3)C2=O)cc1` ?
No

Recorded test call requested for `CCOC(=O)c1c(NC(=O)c2ccccc2)sc2c3c(ccc12)OCN(C)C3`
No

Could you kindly confirm the outcome this assay logged for CCN(CC)CCC(CNc1ccnc2cc(Cl)ccc12)c1ccccc1 (centres undefined) ?
No

* * *

Tested on: ACHN renal
Test: NCI tumour cell line growth inhibition, 48 h; in the data active = GI50 below about 0.43 µM; inactive = the rest
In this exercise, the only acceptable responses are active, inactive

What outcome does the record of this test show for NC(Cc1c[nH]c2ccc(F)cc12)C(=O)O (stereo not given) ?
inactive

Field: outcome | Entry: `CCN(CC)c1ccc2nc3c4ccccc4c(=O)cc-3n(-c3ccccc3)c2c1`
inactive

Lab log entry: `NC1=NC(=O)/C(=C/c2ccc3ncccc3c2)S1` — outcome as called in the assay?
inactive

Any idea what this test logged for `C[C@@H](NC(=O)c1ncnc(N)c1Cl)c1ncc(C(=O)Nc2cc(C(F)(F)F)c(Cl)cn2)s1` ?
inactive

Answer briefly: the call reported for `Cc1c(-c2ccc(O)cc2)oc(=O)c2ccc(O)cc12` in this assay.
inactive

Recorded test outcome, item CC1C(=O)c2cc3c(cc2CCN(C)Cc2c1ccc1c2OCO1)OCO3 (stereo not given)
inactive

GET /call?item= `COc1ccc(-c2nn(-c3ccc(NC(=O)c4cc(Cl)cc(Cl)c4)cc3)cc2-c2ccncc2)cc1Cl` returns the recorded outcome of this test.
inactive

What did the test return for CCN(CC)CCC(CNc1ccnc2cc(Cl)ccc12)c1ccccc1 (stereo not given) ?
inactive

I would be grateful if you could indicate the recorded call for `COc1cc(/C=C/C(=O)/C=C/c2cc3ccc(Cl)cc3n(Cc3ccccc3)c2=O)ccc1O` .
inactive

Query: recorded result category for `CCOC(=O)c1c(NC(=O)c2ccccc2)sc2c3c(ccc12)OCN(C)C3` in this test
inactive

Short answer needed: outcome of this test for `Cc1ccc(NC(=O)Nc2c(Cl)cccc2Cl)cn1` ?
inactive

How was `C/C(=N\n1c(O)c(C#N)cc(C#N)c1=O)c1ccncc1` classified in this test?
inactive

Hey, what did the test say about `COc1ccc(Cn2cc3c(c2)-c2oncc2CC3)cc1OC` ?
active

Which outcome did this test record for the compound `O=C(COc1ccc(OCC(=O)N2C(=O)CN(c3ccccc3)C2=S)cc1)N1C(=O)CN(c2ccccc2)C1=S` ?
inactive

I would be grateful if you could indicate the recorded call for `O=c1c2ccccc2nc(-c2ccccc2Cl)n1-c1nnc(C(F)(F)F)s1` .
inactive

Record request — test call for `O=C1c2ccccc2C(=O)c2c1ccc1c(=O)n(-c3ccccc3C(F)(F)F)nnc21`
inactive

Hi, do you know how `O=C(Nc1ccc(-n2ccc3c(NC(=O)c4ccccc4)nccc32)cc1)Nc1cccc(C(F)(F)F)c1` came out in this test?
inactive

Identify the outcome logged in this assay for the compound shown: `Cc1ccc(-c2nc3cc(Cl)c(Cl)cc3nc2C#N)cc1`
inactive

For `CCCCN=C(N)c1ccc(N2CCCN(c3ccc(C(N)=NCCCC)cc3)CC2)cc1` , which call appears in the assay record?
inactive

What outcome does the record of this test show for `COc1ccc2nc(-c3ccccc3)cc(Nc3cccc(C(C)=O)c3)c2c1` ?
inactive

* * *

System: SF-295 CNS
Assay: NCI tumour cell line growth inhibition, 48 h
Experimental Readout: TGI (µM)
Provide only the numeric value, understood in µM.

Noted for `O=C(Nc1ccc(-n2ccc3c(NC(=O)c4ccccc4)nccc32)cc1)Nc1cccc(C(F)(F)F)c1` : its TGI reads 18.8

Record `O=C(/C=C/C(Cl)(Cl)Cl)Nc1ccc(Cl)cc1` . Reported TGI: 28.8

* * *

Test system: SN12C renal
Assay: NCI tumour cell line growth inhibition, 48 h; in the data active = GI50 below about 0.43 µM; inactive = the rest
Pick one and only one: yes = active, no = inactive

# outcome recorded in this test, key = `COc1ccc(Cn2cc3c(c2)-c2oncc2CC3)cc1OC`
yes

Recorded call for `OCc1ccc(N2CCc3cc(F)ccc3C2)cc1Cl` ?
no

# outcome recorded in this test, key = `Cc1c(-c2ccc(O)cc2)oc(=O)c2ccc(O)cc12`
no

Tell me the assay call for `C/C(=N\n1c(O)c(C#N)cc(C#N)c1=O)c1ccncc1` please.
no

Called result for COc1ccccc1/C=C/C1=C(C)CCC(c2ccccc2OC)C1C (stereo unspecified)
yes

Name the outcome recorded for `COc1ccc2nc(-c3ccccc3)cc(Nc3cccc(C(C)=O)c3)c2c1` in the assay.
no

* * *

Test system: DU-145 prostate
Experiment: NCI tumour cell line growth inhibition, 48 h
Experimental Readout: TGI

# TGI (molecule: `N#Cc1ccccc1C#C/C=C\C#CC#C/C=C\C#Cc1ccccc1C#N` ) is > 100 µM

molecule CCN(CC)c1ccc(C2NC(=O)c3ccccc3N2)cc1 (configuration not stated) , TGI observed: > 100 µM

# TGI of `CCCCCCSCC/C(C)=N\OC` = > 100 µM

The measured TGI associated with `Cc1oc(N)c(S(=O)(=O)c2cc3ccccc3n(O)c2=N)c1C` reads > 100 µM

Value of measured TGI for the entry `CCN(CC)c1ccc2cc(C(=O)NCc3ccccc3)c(=N)oc2c1` : > 100 µM

molecule C[C@@H]1CCC2C(C)(C)C(/C=C\C=O)C3(C)OC213 (some centres not stated) , TGI observed: > 100 µM

Sample `CCc1[nH]c(=O)c2oc3cc4ccccc4cc3c2c1C(=O)O` ; TGI observed: > 10 µM

The reported value for COc1cc(C(C[N+](=O)[O-])SC(C)=O)ccc1OCc1ccccc1 (configuration not stated) in terms of TGI is 27.1 µM

The molecule listed as CC(C)[Si]1(C(C)C)OCC2OC(n3c(C(=O)c4ccccc4)cc(=O)[nH]c3=O)CC2O[Si](C(C)C)(C(C)C)O1 (configuration not stated) shows TGI equal to 24.6 µM

TGI reported for this molecule `CCCCOCOc1ccccc1P1(=O)COc2ccccc2OC1` : > 100 µM

// TGI lookup, molecule = Cc1cc(C)c2c(=O)n(CC(O)CN3CCN(CCOCCO)CC3)sc2n1 (configuration not stated) , result: 48.2 µM

The value of TGI measured for the molecule `O=C1c2cccnc2C(=O)c2c1c(C(=O)NCCn1ccnc1)c1ccccn21` turned out to be 12.4 µM

* * *

System: SF-539 CNS
Assay: NCI tumour cell line growth inhibition, 48 h
Experimental Readout: TGI

Notebook: `CCCCCCNC(=S)N/N=C(\C)c1ccccn1` , TGI read as 11.9 µM

GET /value?item= `COc1cc(C2C(C(=O)Nc3ccc([N+](=O)[O-])cc3)=C(C)NC(C)=C2C(=O)Nc2ccc([N+](=O)[O-])cc2)ccc1O` &field=TGI returns 41.1 µM

Lab note: measured TGI of C/C(=N/NC(=O)C[n+]1ccccc1)C(CN(CC(C)C)CC(C)C)C(=O)Nc1ccc(C)cc1C (configuration not stated) was > 100 µM

Documented TGI of `CC1(C)OCN(c2ccc(S(N)(=O)=O)cc2)Cn2c1nc1ccccc12` : > 100 µM

Value of measured TGI for the entry `O=C(COc1ccc(OCC(=O)N2C(=O)CN(c3ccccc3)C2=S)cc1)N1C(=O)CN(c2ccccc2)C1=S` : > 100 µM

get_value(item= `COc1ccc2nc(-c3ccccc3)cc(Nc3cccc(C(C)=O)c3)c2c1` , readout=TGI) returns 3.66 µM

Entry Cc1ccc(OCC2=NC3S/C(=C/c4ccc([N+](=O)[O-])o4)C(=O)N3N2)cc1 (configuration not stated) — recorded TGI = 4.3 µM

// TGI value for COC1[C@H](NC(=O)OC(C)(C)C)C(=O)N1Cc1ccccc1 (some centres not stated) : > 100 µM

Per the records, this molecule ( `COc1cccc(C2=C(c3cn(C)c4cc(F)ccc34)C(=O)NC2=O)c1` ) has TGI equal to > 25 µM

TGI reading for `Cc1n[n+]([O-])c(C)cc1[N+](=O)[O-]` : 59.3 µM

Documented TGI of `Oc1cnc2c(O)cccc2c1` : 96.6 µM

The reported TGI of the molecule COc1cc(C2c3cc4c(cc3[C@@H](Nc3ccc(Oc5ccccc5)cc3)C3COC(=O)[C@H]23)OCO4)cc(OC)c1O (some centres not stated) was > 28.2 µM

Record `O=Cc1c(-c2ccccc2)[nH]c2ccccc2c1=O` . Reported TGI: > 100 µM

Value of measured TGI for the entry O=C(O)C1CCCCN1C(=O)Cc1c[nH]c2ccccc12 (configuration not stated) : > 100 µM

Looking up COC(=O)C1=C(OC(=O)/C=C/c2ccc(Cl)cc2)C(C(=O)OC)[C@]2(O)[C@@H](C(=O)OC)[C@H]1C[C@@H](c1ccccc1)[C@@H]2C(=O)OC (some centres not stated) , I found its TGI recorded as 35.6 µM

Entry under test: `CC(C)(C)NC(=O)[C@H]1CC[C@H]2[C@@H]3CC[C@H]4NC(=O)C=C[C@]4(C)[C@H]3CC[C@]12C` . Its TGI was > 100 µM

The value of TGI measured for the molecule `COc1ccc(S(=O)(=O)N[C@H](C(=O)O)c2ccccc2)cc1` turned out to be > 100 µM

// TGI value for C[N+]1(CCC(=O)c2ccccc2)CCC2CCC(C2)C1 (configuration not stated) : > 100 µM

For reference, reported TGI for `CC/C(=N/O)c1ccc2[nH]c3c(C)cc([N+](=O)[O-])c(C)c3c2c1` stands at > 100 µM

// sample CC(=O)OCC1OC(n2c(N)c(C#N)c(C)c(C#N)c2=S)C(OC(C)=O)C(OC(C)=O)C1OC(C)=O (configuration not stated) , its TGI was > 100 µM

The recorded TGI for entry C[C@@]1(Cc2ccccc2)C(=O)N2[C@@H](CO)C(c3ccccc3)O[C@]2(C)c2ccccc21 (some centres not stated) equals > 100 µM

Entry `Cc1ccc(Cl)cc1NC(=O)c1cc2ccccc2cc1O` — recorded TGI = 1.82 µM

# molecule `CCCCOCOc1ccccc1P1(=O)COc2ccccc2OC1` ; its TGI = > 100 µM

Form: molecule = COc1ccccc1/C=C/C1=C(C)CCC(c2ccccc2OC)C1C (configuration not stated) ; TGI = 0.215 µM

// recorded TGI for CCOC(=O)[C@@H]1ON2O[C@H](OC3CCCCC3c3ccccc3)C[C@H]3OC(=O)[C@@H]1C32 (some centres not stated) : > 100 µM

Value of measured TGI for the entry `Nc1ncnc2c1ncn2-c1ccc([N+](=O)[O-])cn1` : > 100 µM

Value of TGI reported for the molecule CCN(CC)CCC(CNc1ccnc2cc(Cl)ccc12)c1ccccc1 (configuration not stated) is 4.11 µM
